System: THP-1
Protocol notes: THP-1 cell loss relative to DMSO control; higher = more host cell loss (toxicity); extreme values may be limits of the assay
Condition set: 10 µM; 4 days; infection: M. tuberculosis H37Rv
Hi, to clarify the labels: t covers THP-1 cell loss from 30% upward, f covers anything below 30%.

Lookup: Determine whether this molecule has THP-1 cell loss no lower than 30%: Cc1ccc(NC(=O)c2ccc(CN3CCN(C)CC3)cc2)cc1Nc1nccc(-c2cccnc2)n1 [Imatinib (free base)]
Found: f

Lookup: Determine whether this molecule has THP-1 cell loss no lower than 30%: `NC1(c2ccc(-c3nc4ccn5c(=O)[nH]nc5c4cc3-c3ccccc3)cc2)CCC1`
Found: t

Lookup: Determine whether this molecule has THP-1 cell loss no lower than 30%: `CNc1nccc(-c2cccnc2Oc2cc(C(=O)Nc3cccc(C(F)(F)F)c3)ccc2C)n1`
Found: t

Lookup: Determine whether this molecule has THP-1 cell loss no lower than 30%: `S=C(NCc1ccc2c(c1)OCO2)N1CCN(c2ncnc3c2oc2ccccc23)CC1`
Found: f

Lookup: Determine whether this molecule has THP-1 cell loss no lower than 30%: `NC(=O)Nc1sc(-c2ccc(F)cc2)cc1C(N)=O`
Found: t

Lookup: Determine whether this molecule has THP-1 cell loss no lower than 30%: `Cn1c2ccccc2c2c3c(c4c5ccccc5n(CCC#N)c4c21)CNC3=O`
Found: t

Lookup: Determine whether this molecule has THP-1 cell loss no lower than 30%: `Oc1cc(-c2nc(-c3ccccc3)[nH]c2-c2ccncc2)ccc1Cl`
Found: t

Lookup: Determine whether this molecule has THP-1 cell loss no lower than 30%: `COc1ccc2c3n(c(=NC(=O)c4cccnc4)nc2c1OC)CCN3`
Found: t

Lookup: Determine whether this molecule has THP-1 cell loss no lower than 30%: `Cc1cnc(-c2cnc(NCCNc3ccc(C#N)cn3)nc2-c2ccc(Cl)cc2Cl)[nH]1`
Found: f

Lookup: Determine whether this molecule has THP-1 cell loss no lower than 30%: `NS(=O)(=O)c1ccc(Nc2nc(OCC3CCCCC3)c3[nH]cnc3n2)cc1`
Found: f
